Target: T1, recombinant human IL6R-his (human, UniProt P08887 20-365)
T1 construct: In house made; the entry includes the C-terminal His tag; also called human IL6R-his protein
T1 sequence: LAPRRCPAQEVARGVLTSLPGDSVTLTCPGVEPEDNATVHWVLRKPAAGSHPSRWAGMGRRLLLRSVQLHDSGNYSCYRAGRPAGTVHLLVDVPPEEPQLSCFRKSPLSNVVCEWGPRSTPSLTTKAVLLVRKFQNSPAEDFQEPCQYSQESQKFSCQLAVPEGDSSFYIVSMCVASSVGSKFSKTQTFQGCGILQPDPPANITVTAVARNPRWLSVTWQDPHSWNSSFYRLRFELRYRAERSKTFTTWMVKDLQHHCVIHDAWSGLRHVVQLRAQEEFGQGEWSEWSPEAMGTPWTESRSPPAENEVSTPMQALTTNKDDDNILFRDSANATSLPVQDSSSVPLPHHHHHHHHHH
Assay: SPR Biacore; antibody from diluted cell supernatant captured by anti-human IgG on CM5, human IL6R in flow
Method: Un-reacted moieties on the biosensor surface were blocked with ethanolamine. […] Then, serially diluted recombinant human IL6R-his (in house made, amino acid sequence set forth in SEQ ID NO: 44) or macaca IL6R-his protein (in house made, amino acid sequence set forth in SEQ ID NO: 45), starting at 100 nM with a 2-fold serial dilution in HBS-EP⁺ buffer (provided by Biacore), was flowed onto the chip at a flow rate of 30 μL/min. […]
The binders listed here are annotated with their kon.
Express the reported value numerically, then name its unit.

| binder | kon |
| --- | --- |
| humanized antibody hu1H7-V11 (antibody, human IgG1, kappa, V domains shown, Human IgG1 / kappa) VH: QVQLVQSGAEVKKPGASVKVSCKASGYTFTNYWMHWVRQAPGQGLEWIGEINPTNGRTNYNENFKSRVTLTVDTSTSTVYMELSSLRSEDTAVYYCARLNTHYVFDSWGQGTLVTVSS VL: EIVLTQSPGTLSLSPGERATLSCSVSSSISSNYLHWYQQKPGLSPRLLISRTSTLASGIPARFSGSGSGTEFTLTISRLQSEDFAVYYCQQGSGIPFTFGQGTKLEIKR | 238000 M⁻¹ s⁻¹ |

Next item in the queue.
Req: Which value of kon has been reported for humanized antibody hu1H7-V3 (antibody, human IgG1, kappa, V domains shown, Human IgG1 / kappa) VH: QVQLVQSGAEVKKPGASVKVSCKASGYTFTNYWMHWVRQAPGQGLEWIGEINPTNGRTNYNENFKSKVTMTVDTSTSTVYMELSSLRSEDTAVYYCARLNTHYVFDSWGQGTLVTVSS VL: EIVLTQSPGTLSLSPGERATLSCSVSSSISSNYLHWYQQKPGLSPRLLISRTSTLASGIPARFSGSGSGTEYTLTISRMQSEDFAVYYCQQGSGIPFTFGQGTKLEIKR in the records?
Resp: 311000 M⁻¹ s⁻¹
